B1: Caulobacter ParB omega fusion; a variant is named by its letters at X, in order, B8GW30 (parent)
chain: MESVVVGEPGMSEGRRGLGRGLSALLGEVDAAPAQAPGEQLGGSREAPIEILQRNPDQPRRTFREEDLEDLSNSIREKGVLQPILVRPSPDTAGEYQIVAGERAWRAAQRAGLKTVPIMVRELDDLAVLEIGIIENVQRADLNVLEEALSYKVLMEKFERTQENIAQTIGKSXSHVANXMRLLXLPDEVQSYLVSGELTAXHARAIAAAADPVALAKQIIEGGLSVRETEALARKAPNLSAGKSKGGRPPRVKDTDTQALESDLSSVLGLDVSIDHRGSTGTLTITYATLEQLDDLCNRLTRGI

# Variants of: B1
# TEST_SUMMARY: one-hybrid fitness for binding parS DNA (scaled: cognate 1, non-cognate 0); higher = stronger binding
# TEST_PARAMETERS: with parS DNA site
Whole data set: some 81,000 sequences, median “one-hybrid fitness for binding parS DNA” near -0.17, cut for the highest 2% near 0.51. Shown is part of a subset that was picked to be rich in the highest values.
PROPERTY: one-hybrid fitness for binding parS DNA

# get_value(readout='one-hybrid fitness for binding parS DNA', item= RTGH )
≤ 0.2

# get_value(readout='one-hybrid fitness for binding parS DNA', item= RTRN )
0.396

# get_value(readout='one-hybrid fitness for binding parS DNA', item= RTRQ )
≤ 0.2

# get_value(readout='one-hybrid fitness for binding parS DNA', item= RTRG )
0.908

# get_value(readout='one-hybrid fitness for binding parS DNA', item= RTLR )
≤ 0.2

# get_value(readout='one-hybrid fitness for binding parS DNA', item= RTGG )
0.997

# get_value(readout='one-hybrid fitness for binding parS DNA', item= RTLQ )
≤ 0.2
